Target: human GLP-1 receptor (human, UniProt P43220 24-463)
Assay: cell-based or functional assay
Exercise: for every item that follows, state its recorded hGLPIR cAMP EC50 ratio.

Record excerpt, results attached:
{"binder": "YXEGTXTSDYSIXLDXKAQXEFIXXLIEGGPSSGAPPPS (not fully specified; Aib2; αMeF(2F)6; αMeL13; Orn16; K17((2-[2-(2-Amino-ethoxy)-ethoxy]-acetyl)2-(γGlu)-CO-(CH2)16-CO2H); Aib20; D-Glu24; αMeY25; C-terminal NH2) [Peptide 236]", "hGLPIR cAMP EC50 ratio": 1.65}
{"binder": "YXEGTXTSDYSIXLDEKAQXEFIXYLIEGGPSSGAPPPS (Aib2; αMeF6; αMeL13; K17((2-[2-(2-Amino-ethoxy)-ethoxy]-acetyl)2-(γGlu)-CO-(CH2)16-CO2H); Aib20; D-Glu24; C-terminal NH2) [Peptide 213]", "hGLPIR cAMP EC50 ratio": 0.694}

Query string: Need hGLPIR cAMP EC50 ratio of YXEGTXTSDYSIXLDEKAQXAFIEYLIEGGPSSGAPPPS (Aib2; αMeF6; αMeL13; K17((2-[2-(2-Amino-ethoxy)-ethoxy]-acetyl)2-(γGlu)-CO-(CH2)18-CO2H); Aib20; C-terminal NH2) [Peptide 115] , thanks.
Result string: 0.743
